This collection of values is drawn from patent EP4631938A1.

Consider the following compounds; for each one, report its pKi.
Target: human recombinant 5-HT2C receptor (Homo sapiens)
Construct: expressed in transfected cells; host or cells: Jump-In HEK cells (membrane preparation)
Sequence (P28335 33-458): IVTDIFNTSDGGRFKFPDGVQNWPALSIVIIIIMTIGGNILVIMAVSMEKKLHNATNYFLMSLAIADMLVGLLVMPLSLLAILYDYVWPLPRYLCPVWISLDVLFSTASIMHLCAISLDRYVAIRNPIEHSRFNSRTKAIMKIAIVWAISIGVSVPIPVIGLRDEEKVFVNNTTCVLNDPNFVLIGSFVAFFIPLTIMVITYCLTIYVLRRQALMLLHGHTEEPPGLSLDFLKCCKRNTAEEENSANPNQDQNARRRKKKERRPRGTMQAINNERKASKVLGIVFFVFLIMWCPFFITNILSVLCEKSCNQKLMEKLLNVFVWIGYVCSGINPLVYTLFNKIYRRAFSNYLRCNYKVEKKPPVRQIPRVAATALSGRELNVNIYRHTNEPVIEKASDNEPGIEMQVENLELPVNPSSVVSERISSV
Assay: Test Example 2-2: 5-HT2C receptor binding inhibition test ([3H]-Mesulergine; non-specific ligand Ketanserin)
Settings: non-specific binding with 500 µmol/L Ketanserin, 37°C, 2 hours
Numbers only, as −log10 of the molar value.

>>> print(df.to_string())
                                  cpdsmiles                            targetorsystem  readoutname  readoutvalue
0  Cn1cnc(Cl)c1-c1cc(Nc2ncc(C(F)(F)F)cc2F)ccc1OCCO  human recombinant 5-HT2C receptor (Homo sapiens)          pKi          9.12
1  CC(C)c1cnn(C)c1-c1cc(Nc2ncc(C(F)(F)F)cc2F)ccc1OCCO  human recombinant 5-HT2C receptor (Homo sapiens)          pKi          8.98

# ---- query compound ----
Data request, read-out pKi, for `Cn1ncc(Br)c1-c1cc(Nc2nc3ccccc3s2)ccc1OCCO`
9.20
